assay: Half life in 0.1 M phosphate buffer at pH 7.4 at 37 degC by TLC
Type: physicochemical

| compound | unit label | half-life |
| --- | --- | --- |
| Cc1ccc(OP(=O)(OCCS(=O)(=O)c2ccccc2)OC[C@H]2O[C@@H](n3cc(C)c(=O)[nH]c3=O)C[C@@H]2N=[N+]=[N-])cc1 (some centres undefined) | h | 1.32 |
| Cc1cn([C@H]2C[C@H](N=[N+]=[N-])[C@@H](COP(=O)(OC(C)C(C)S(=O)(=O)c3ccccc3)OC(C)C(C)S(=O)(=O)c3ccccc3)O2)c(=O)[nH]c1=O (some centres undefined) | h | 279 |
| Cc1cn([C@H]2C[C@H](N=[N+]=[N-])[C@@H](COP(=O)(OCCS(=O)(=O)c3ccc([N+](=O)[O-])cc3)OCCS(=O)(=O)c3ccc([N+](=O)[O-])cc3)O2)c(=O)[nH]c1=O | h | 0.07 |
| Cc1cn([C@H]2C[C@H](N=[N+]=[N-])[C@@H](COP(=O)(OCCS(=O)(=O)c3ccccc3)Oc3ccc(Cl)cc3)O2)c(=O)[nH]c1=O (some centres undefined) | h | 0.79 |

###

assay: Half life in human plasma by TLC
Type: ADME, cell-free

| compound | half-life [min] |
| --- | --- |
| CCC(CS(=O)(=O)c1ccccc1)OP(=O)(OC[C@H]1O[C@@H](n2cc(C)c(=O)[nH]c2=O)C[C@@H]1N=[N+]=[N-])OC(CC)CS(=O)(=O)c1ccccc1 (some centres undefined) | 106 |
| Cc1cn([C@H]2C[C@H](N=[N+]=[N-])[C@@H](COP(=O)(OC(C)CS(=O)(=O)c3ccccc3)OC(C)CS(=O)(=O)c3ccccc3)O2)c(=O)[nH]c1=O (some centres undefined) | 81 |
| Cc1cn([C@H]2C[C@H](N=[N+]=[N-])[C@@H](COP(=O)(OCCS(=O)(=O)c3ccccc3)Oc3ccc(F)cc3)O2)c(=O)[nH]c1=O (some centres undefined) | 22.2 |
| Cc1ccc(OP(=O)(OCCS(=O)(=O)c2ccccc2)OC[C@H]2O[C@@H](n3cc(C)c(=O)[nH]c3=O)C[C@@H]2N=[N+]=[N-])cc1 (some centres undefined) | 36 |

###

Tested on: 143B
assay: Cytotoxicity against human thymidine kinase-deficient 143B cells after 72 hrs by MTT assay
Assay type: functional, cell-based
outcome measure: IC50 (µM)

| compound | outcome measure | value observed |
| --- | --- | --- |
| Cc1cn([C@H]2C[C@H](N=[N+]=[N-])[C@@H](COP(=O)(OCCS(=O)(=O)c3ccc(Cl)cc3)OCCS(=O)(=O)c3ccc(Cl)cc3)O2)c(=O)[nH]c1=O | IC50 | 8.8 |
| COc1ccc(OP(=O)(OCCS(=O)(=O)c2ccccc2)OC[C@H]2O[C@@H](n3cc(C)c(=O)[nH]c3=O)C[C@@H]2N=[N+]=[N-])cc1 (stereo partly specified) | IC50 | 25.3 |
| Cc1cn([C@H]2C[C@H](N=[N+]=[N-])[C@@H](COP(=O)(OCC(c3ccccc3)S(=O)(=O)c3ccccc3)OCC(c3ccccc3)S(=O)(=O)c3ccccc3)O2)c(=O)[nH]c1=O (stereo partly specified) | IC50 | 19.7 |
| CCC(CS(=O)(=O)c1ccccc1)OP(=O)(OC[C@H]1O[C@@H](n2cc(C)c(=O)[nH]c2=O)C[C@@H]1N=[N+]=[N-])OC(CC)CS(=O)(=O)c1ccccc1 (stereo partly specified) | IC50 | 13.3 |
| Cc1cn([C@H]2C[C@H](N=[N+]=[N-])[C@@H](CO)O2)c(=O)[nH]c1=O | IC50 | 148 |
| COc1ccc(S(=O)(=O)CCOP(=O)(OCCS(=O)(=O)c2ccc(OC)cc2)OC[C@H]2O[C@@H](n3cc(C)c(=O)[nH]c3=O)C[C@@H]2N=[N+]=[N-])cc1 | IC50 | 5.16 |

###

# half-life per entry
assay: Half life in human plasma by TLC
Type: ADME, cell-free

| molecule | unit label | half-life |
| --- | --- | --- |
| Cc1cn([C@H]2C[C@H](N=[N+]=[N-])[C@@H](COP(=O)(OC(C)C(C)S(=O)(=O)c3ccccc3)OC(C)C(C)S(=O)(=O)c3ccccc3)O2)c(=O)[nH]c1=O (stereo partly drawn) | min | 4210 |
| Cc1cn([C@H]2C[C@H](N=[N+]=[N-])[C@@H](COP(=O)(OCC(c3ccccc3)S(=O)(=O)c3ccccc3)OCC(c3ccccc3)S(=O)(=O)c3ccccc3)O2)c(=O)[nH]c1=O (stereo partly drawn) | min | 30.6 |
| Cc1cn([C@H]2C[C@H](N=[N+]=[N-])[C@@H](COP(=O)(OCCS(=O)(=O)c3ccccc3)Oc3ccc(Cl)cc3)O2)c(=O)[nH]c1=O (stereo partly drawn) | min | 21 |

###

assay: Half life in human plasma by TLC
Format: ADME, cell-free
outcome measure: log10(half-life) (log10 of the value in min)

| molecule | log10(half-life) |
| --- | --- |
| Cc1cn([C@H]2C[C@H](N=[N+]=[N-])[C@@H](COP(=O)(OCCS(=O)(=O)c3ccccc3)OCCS(=O)(=O)c3ccccc3)O2)c(=O)[nH]c1=O | 1.14 |
| Cc1ccc(S(=O)(=O)CCOP(=O)(OCCS(=O)(=O)c2ccc(C)cc2)OC[C@H]2O[C@@H](n3cc(C)c(=O)[nH]c3=O)C[C@@H]2N=[N+]=[N-])cc1 | 1.38 |
| Cc1cn([C@H]2C[C@H](N=[N+]=[N-])[C@@H](COP(=O)(OCCS(=O)(=O)c3ccc(Cl)cc3)OCCS(=O)(=O)c3ccc(Cl)cc3)O2)c(=O)[nH]c1=O | 0.89 |
| Cc1cn([C@H]2C[C@H](N=[N+]=[N-])[C@@H](COP(=O)(OCC(C)S(=O)(=O)c3ccccc3)OCC(C)S(=O)(=O)c3ccccc3)O2)c(=O)[nH]c1=O (stereo partly specified) | 2.40 |
| Cc1ccc(OP(=O)(OCCSc2ccccc2)OC[C@H]2O[C@@H](n3cc(C)c(=O)[nH]c3=O)C[C@@H]2N=[N+]=[N-])cc1 (stereo partly specified) | 3.08 |
| COc1ccc(OP(=O)(OCCS(=O)(=O)c2ccccc2)OC[C@H]2O[C@@H](n3cc(C)c(=O)[nH]c3=O)C[C@@H]2N=[N+]=[N-])cc1 (stereo partly specified) | 1.56 |
